readout label: melting point

Known results for molecules:
- CCN(CC)CCNc1cccc2c1C(=O)c1cccc(NCCN(CC)CC)c1C2=O: 158 to 160 °C
- O=C(O)c1cn(-c2ccc(Br)cc2)c(-c2ccc(Cl)cc2Cl)n1: 138 to 142 °C
- CCS(=O)(=O)N(C(C)=O)c1cc(-c2ncnc(C(F)(F)F)c2Cl)c(F)cc1C#N: 144 to 146 °C
- CCCN1CCCC(c2cccc(O)c2)C1=O (stereo unspecified): 61 to 63 °C
- C[C@H](NC(=O)OCc1ccccc1)C(=O)N1CCC[C@H]1C(=O)NC1CCCCCCC1: 94 to 96 °C

Asked: State its melting point for this molecule: `CCc1cccc(N)c1C(=O)O`
Given back: 99 to 104 °C

* * *

melting point reference

Known results for molecules:
• N#Cc1ccc(CCNC(=O)CC(=O)O)cc1 = 137 to 139 °C
• O=C(O)COc1ccc(Cn2nnc(-c3cccc(C#CCc4ccc(F)cc4)c3)n2)cc1 = 158 to 160 °C
• Clc1ccc(-c2c[nH]nc2-c2ccncc2)cc1 = 204 to 207 °C
• COC(=O)Cc1cc(C(=O)c2ccc(C#Cc3ccccc3)c(N)c2)sc1-c1ccccc1 = 146 to 148 °C

Asked: State its melting point for this molecule: OCC1(CN(Cc2ccccc2)Cc2ccccc2)CCN(Cc2ccccc2)C1 (stereo unspecified)
Given back: 65 to 67 °C

Asked: State its melting point for this molecule: O=C(c1ccccc1)C(O)C1OC(n2cc(F)c(=O)[nH]c2=O)C(O)(C(=O)c2ccccc2)C1(O)C(=O)c1ccccc1 (stereo unspecified)
Given back: 210 to 214 °C

Asked: State its melting point for this molecule: `Cc1cc(Cn2nc(-c3ccccc3)oc2=O)cc(C(C)(C)C)c1O`
Given back: 152 °C

Asked: State its melting point for this molecule: `CC(=O)c1cccc(NC(=O)c2nnnn2Cc2ccccc2)c1O`
Given back: 155 to 157 °C

Asked: State its melting point for this molecule: `COC(=O)c1ccc2oc(CCc3cc4cc(C(=O)OC)ccc4o3)cc2c1`
Given back: 165 to 167 °C

Asked: State its melting point for this molecule: `NNC(=O)c1cccc(Cc2c[nH]cn2)c1O`
Given back: 190 °C

Asked: State its melting point for this molecule: CS(=O)c1ccc(C(=O)CCCCC#N)cc1 (stereo unspecified)
Given back: 89.5 to 91.5 °C

Asked: State its melting point for this molecule: CCOC(=N)C1(O)CCc2ccccc21 (stereo unspecified)
Given back: < 20 °C

Asked: State its melting point for this molecule: `NS(=O)(=O)Oc1cc(C(F)(F)F)cc(C(F)(F)F)c1`
Given back: 118 to 120 °C

Asked: State its melting point for this molecule: `Cc1c(CCCC(=O)O)cccc1C(=O)c1ccc(Cl)cc1`
Given back: 124 °C

Asked: State its melting point for this molecule: `OCc1cc(Cl)c(Br)cn1`
Given back: 109 to 110 °C

Asked: State its melting point for this molecule: `CC#COc1ccc2c(C)cc(=O)oc2c1`
Given back: 140 to 141 °C

Asked: State its melting point for this molecule: `COC(=O)CCc1cnoc1-c1ccc(Cl)s1`
Given back: 34 to 35 °C

Asked: State its melting point for this molecule: CN1C(=O)CCC2(C)c3ccc(Sc4ccccn4)cc3CCC12 (single isomer, unassigned; (+))
Given back: 174 to 176 °C

Asked: State its melting point for this molecule: `COC(=O)c1ccccc1N(C)C(=O)CBr`
Given back: 80 to 82 °C

Asked: State its melting point for this molecule: COc1ccc(C2=NN(C3CCN(C(=O)N4CCOCC4)CC3)C(=O)[C@H]3CC=CC[C@@H]23)cc1Cl (relative stereo)
Given back: 185 to 186 °C

Asked: State its melting point for this molecule: `O=C(O)c1ccc(OCCCCO)cc1`
Given back: 124 °C

All figures here come from a melting point compilation (Tetko et al.; mined from patent text by program, amines drawn as free bases though some values may be those of a salt).
